Assay: Drug level in LPS-challenged mouse serum at 30 mg/kg after 5.5 hrs
Type: ADME, organism-based
Design: dose 30 mg/kg
Details: read-out: Activity
As shown below, each of these compounds has a reported concentration at 5.5 h value.
Write the number in µM without appending the unit.

compound | recordedEndpoint | val
CNc1nc2cc(-c3cccc(CCNCC(N)=O)c3)sc2n2c(C)cnc12 | concentration at 5.5 h | 2.1

compound Cc1ccc2nc(NCCN)c3ncc(C)n3c2c1 [BMS-345541] , concentration at 5.5 h observed: 4.2

###

Data export: IC50 values recorded with Inhibitor of nuclear factor kappa-B kinase subunit alpha (Homo sapiens, UniProt O15111).
Sequence (O15111 whole entry): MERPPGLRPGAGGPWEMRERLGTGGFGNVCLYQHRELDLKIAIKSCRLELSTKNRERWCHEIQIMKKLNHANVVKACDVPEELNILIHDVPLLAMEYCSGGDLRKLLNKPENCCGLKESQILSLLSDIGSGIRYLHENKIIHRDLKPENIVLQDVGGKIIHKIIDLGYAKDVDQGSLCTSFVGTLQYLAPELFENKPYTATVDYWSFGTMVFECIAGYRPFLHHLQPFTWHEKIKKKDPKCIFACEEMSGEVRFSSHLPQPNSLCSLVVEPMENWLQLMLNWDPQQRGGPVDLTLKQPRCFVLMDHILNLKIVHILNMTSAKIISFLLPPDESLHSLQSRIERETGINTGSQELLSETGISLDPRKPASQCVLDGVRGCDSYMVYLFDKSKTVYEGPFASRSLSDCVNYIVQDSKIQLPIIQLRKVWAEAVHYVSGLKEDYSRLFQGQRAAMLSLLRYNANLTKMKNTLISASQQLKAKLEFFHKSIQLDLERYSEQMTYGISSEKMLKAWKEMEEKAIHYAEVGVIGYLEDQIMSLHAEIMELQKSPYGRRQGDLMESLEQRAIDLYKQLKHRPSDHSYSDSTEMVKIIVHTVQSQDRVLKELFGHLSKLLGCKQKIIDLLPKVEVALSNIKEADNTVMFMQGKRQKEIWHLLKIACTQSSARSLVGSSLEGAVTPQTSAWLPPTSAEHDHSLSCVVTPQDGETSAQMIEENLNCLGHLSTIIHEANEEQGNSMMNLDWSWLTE
Write the number in µM without appending the unit.

Example entries begin here.
smilesString | val
CNc1nc2cc(-c3cccc(CCC(N)=O)c3)sc2n2c(C)cnc12 | 1.21
CNC(=O)CNCCc1cccc(-c2cc3nc(NC)c4ncc(C)n4c3s2)c1 | 1.08
Cc1cnc2c(NCCN)nc3cc(-c4cccc(CCO)c4)sc3n12 | 0.91

Log: Inhibitor of nuclear factor kappa-B kinase subunit alpha (Homo sapiens, UniProt O15111), molecule Cc1cnc2c(NCCN3CCCCC3)nc3cc(-c4ccccc4)sc3n12 , IC50 = 3.13

###

Experiment: Aqueous solubility in sodium phosphate buffer at pH 6.5
Type: physicochemical
recordedEndpoint: solubility (mg/mL)
Write the number in mg/mL without appending the unit.

compound | solubility, mg/mL
CNC(=O)C(N)Cc1cccc(-c2cc3nc(NC)c4ncc(C)n4c3s2)c1 (racemic) | 0.042

We now examine a further compound.
compound CCNC(=O)C(N)Cc1cccc(-c2cc3nc(NC)c4ncc(C)n4c3s2)c1 (racemic) , solubility observed: 0.044

###

Test: Cmax in mouse at 10 mg/kg, po
Assay type: ADME, organism-based
Design: dose 10 mg/kg, route oral
Settings: in vivo
As shown below, each of these compounds has a reported Cmax value.
Write the number in nM without appending the unit.

compound | val
CNc1nc2cc(-c3cccc(CCNCC(N)=O)c3)sc2n2c(C)cnc12 | 5200
Cc1ccc2nc(NCCN)c3ncc(C)n3c2c1 | 1400

compound CCNC(=O)C(N)Cc1cccc(-c2cc3nc(NC)c4ncc(C)n4c3s2)c1 (racemic) , Cmax observed: 8600

compound CNc1nc2cc(-c3cccc(CC(N)=O)c3)sc2n2c(C)cnc12 , Cmax observed: 290

compound CNc1nc2cc(-c3cccc(CNC(N)=O)c3)sc2n2c(C)cnc12 , Cmax observed: 150

###

Assay: Cytotoxicity against Jurkat cells by Alamar blue assay
Conditions: human, jurkat
recordedEndpoint: CC50 (µM)
Write the number in µM without appending the unit.

molecule Cc1cnc2c(NCCN)nc3cc(-c4cccc(CO)c4)sc3n12 , CC50 observed: 7

###

System: PBMC
Test: Inhibition of LPS-induced TNFalpha production in PBMC
Type: functional, cell-based
Conditions: Homo sapiens
recordedEndpoint: pEC50
Note on units: pEC50 is unitless, being -log10 of a concentration expressed in mol/L.

Example entries begin here.
molecule | studyTarget | val
Cc1ccc2nc(NCCN)c3ncc(C)n3c2c1 | PBMC | 6.10
CNc1nc2cc(-c3cccc(CCNCC(N)=O)c3)sc2n2c(C)cnc12 | PBMC | 5.86
CNc1nc2cc(-c3cccc(CNC(N)=O)c3)sc2n2c(C)cnc12 | PBMC | 7.17
CNc1nc2cc(-c3cccc(CC(N)=O)c3)sc2n2c(C)cnc12 | PBMC | 7.19

molecule CCNC(=O)C(N)Cc1cccc(-c2cc3nc(NC)c4ncc(C)n4c3s2)c1 (racemic) , pEC50 observed: 6.85

molecule CNc1nc2cc(-c3cccc(CNS(N)(=O)=O)c3)sc2n2c(C)cnc12 , pEC50 observed: 7.02

###

Biological target: Inhibitor of nuclear factor kappa-B kinase subunit epsilon (Homo sapiens)
Sequence (whole entry): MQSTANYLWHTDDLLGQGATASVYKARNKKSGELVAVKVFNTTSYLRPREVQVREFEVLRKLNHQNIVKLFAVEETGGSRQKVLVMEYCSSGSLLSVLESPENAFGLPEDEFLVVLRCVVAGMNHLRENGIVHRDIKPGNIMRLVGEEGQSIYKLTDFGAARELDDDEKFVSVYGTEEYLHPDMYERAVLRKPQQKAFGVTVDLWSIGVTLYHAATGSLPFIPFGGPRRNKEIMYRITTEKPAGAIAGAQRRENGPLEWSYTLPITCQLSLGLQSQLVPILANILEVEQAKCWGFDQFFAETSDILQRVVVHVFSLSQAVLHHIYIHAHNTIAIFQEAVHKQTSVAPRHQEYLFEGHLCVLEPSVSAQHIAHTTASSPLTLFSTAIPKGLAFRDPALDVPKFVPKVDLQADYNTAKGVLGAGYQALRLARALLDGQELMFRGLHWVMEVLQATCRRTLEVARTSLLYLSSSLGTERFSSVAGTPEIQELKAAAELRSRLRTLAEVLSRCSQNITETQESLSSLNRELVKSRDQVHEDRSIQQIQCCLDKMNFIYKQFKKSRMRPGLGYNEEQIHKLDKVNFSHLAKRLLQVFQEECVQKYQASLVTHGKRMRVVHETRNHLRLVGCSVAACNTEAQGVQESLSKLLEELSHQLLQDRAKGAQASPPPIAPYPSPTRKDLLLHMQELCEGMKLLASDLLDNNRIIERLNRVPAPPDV
Assay: Inhibition of IKKepsilon
Active and inactive are the calls of the source. No cut-off for these calls is given here.
recordedEndpoint: Activity

smilesString | Activity
CNc1nc2cc(-c3ccccc3)sc2n2c(C)cnc12 | inactive
CNc1nc2cc(-c3cccc(CCNC(N)=O)c3)sc2n2c(C)cnc12 | inactive
Cc1cnc2c(NCCN)nc3cc(-c4ccccc4)sc3n12 | inactive
Cc1cnc2c(NCCN3CCCCC3)nc3cc(-c4ccccc4)sc3n12 | inactive

Log: Inhibitor of nuclear factor kappa-B kinase subunit epsilon (Homo sapiens), molecule CNc1nc2cc(-c3cccc(CN)c3)sc2n2c(C)cnc12 , Activity = inactive

###

Test system: Jurkat
Assay: Inhibition of TNF-alpha-induced response in Jurkat cells
Conditions: Homo sapiens
EC50 under 2000 nM gets Yes, anything at or over 2000 nM gets No.

smilesString | studyTarget | assignedClass
CNc1nc2cc(-c3cccc(C[C@@H](N)C(N)=O)c3)sc2n2c(C)cnc12 | Jurkat | Yes
Cc1cnc2c(NCCN)nc3cc(-c4cn[nH]c4)sc3n12 | Jurkat | No
COc1cccc(-c2cc3nc(NCCN)c4ncc(C)n4c3s2)c1 | Jurkat | No

Moving on to the next compound.
Please state whether EC50 is below 2000 nM for CNc1nc2cc(-c3cccc(CNC(C)=O)c3)sc2n2c(C)cnc12
No

###

Experiment: AUC(1 to 4 hrs) in mouse at 10 mg/kg, po
Type: ADME, organism-based
Set-up: time upper 4 hr, time lower 1 hr, dose 10 mg/kg, route oral
Conditions: plasma
recordedEndpoint: log10 AUC(0-t) (log10 of the value in µM·h)
Could you please treat all values as log10 of AUC(0-t) in µM·h?

Example entries begin here.
compound | log10 AUC(0-t)
CNc1nc2cc(-c3cccc(CC(N)=O)c3)sc2n2c(C)cnc12 | -0.20
CNc1nc2cc(-c3cccc(CNC(N)=O)c3)sc2n2c(C)cnc12 | -0.42
Cc1ccc2nc(NCCN)c3ncc(C)n3c2c1 | 0.58
CCNC(=O)C(N)Cc1cccc(-c2cc3nc(NC)c4ncc(C)n4c3s2)c1 (racemic) | 1.00

We now examine a further compound.
compound CNc1nc2cc(-c3cccc(CCNCC(N)=O)c3)sc2n2c(C)cnc12 , log10 AUC(0-t) observed: 0.98

###

Molecular target: Inhibitor of nuclear factor kappa-B kinase subunit alpha (Homo sapiens)
IC50 under 1 µM gets criterion met, anything at or over 1 µM gets criterion not met.

compound | assignedClass
Cc1cnc2c(NCCO)nc3cc(-c4ccccc4)sc3n12 | criterion not met

Moving on to the next compound.
Please state whether IC50 is below 1 µM for CNc1nc2cc(-c3cccc(CCNC(N)=O)c3)sc2n2c(C)cnc12
criterion met

###

Test: Cytotoxicity against Jurkat cells by Alamar blue assay
Conditions: human, Jurkat cells
recordedEndpoint: CC50

Example entries begin here.
smilesString | val
CNc1nc2cc(-c3cccc(C[C@@H](N)C(N)=O)c3)sc2n2c(C)cnc12 | 90 µM
CNc1nc2cc(-c3cccc(CCC(=O)O)c3)sc2n2c(C)cnc12 | > 100 µM

We now examine a further molecule.
molecule CC(=O)NCCNc1nc2cc(-c3ccccc3)sc2n2c(C)cnc12 , CC50 observed: > 100 µM

###

System: Liver
Experiment: Metabolic stability in mouse liver microsomes
Type: ADME, Microsome
recordedEndpoint: Stability (nmol/mg/min)
Write the number in nmol/mg/min without appending the unit.

compound | studyTarget | Stability (nmol/mg/min)
CNc1nc2cc(-c3cccc(CCNCC(N)=O)c3)sc2n2c(C)cnc12 | Liver | 0.07
Cc1ccc2nc(NCCN)c3ncc(C)n3c2c1 | Liver | 0.016
CCNC(=O)C(N)Cc1cccc(-c2cc3nc(NC)c4ncc(C)n4c3s2)c1 (racemic) | Liver | 0.145

compound CNc1nc2cc(-c3cccc(CNS(N)(=O)=O)c3)sc2n2c(C)cnc12 , Stability observed: 0.231

compound CNc1nc2cc(-c3cccc(CC(N)=O)c3)sc2n2c(C)cnc12 , Stability observed: 0.13

compound CNc1nc2cc(-c3cccc(CNC(N)=O)c3)sc2n2c(C)cnc12 , Stability observed: 0.221
